Tested on: SN12C renal
runDescription: NCI-60 one-dose screen, 48 h
conditionContext: 10 µM unless noted
The panel holds about 83,000 compounds, 20% with a hit somewhere; the sample as a whole holds those more often. Activity calls are given as the source filed them. How the source made its calls: active means growth percent below 10; inactive means the rest.
In this exercise, the only acceptable responses are 1.0 = active, 0.0 = inactive

See these solved cases before continuing.
compound	group
O=C1/C(=C/c2ccccc2[N+](=O)[O-])Oc2ccc(O)cc21	0.0
CCOC(=O)c1c(NC(=O)c2cccc(C(F)(F)F)c2)sc2c(CN3CCN(C)CC3)c(O)ccc12	1.0
CN(C)CCn1c2ccc(N)cc2c2nc3ccccc3nc21	0.0
O=C(Nc1cccc(Cl)c1)Nc1nc2ccc(-c3cccc4ccccc34)cc2s1	0.0
COc1ccc(-c2nn(-c3ccccc3)cc2/C=C/C(=O)c2ccc(NC(=O)CCCCCCC(=O)NO)cc2)cc1	0.0

From here, focus on the item given below.
Could you please tell me the result logged for CC1COc2c(N3CCN(C)CC3)c(F)cc3c(=O)c(C(=O)N/N=C/c4cc[nH]c4)cn1c23 (stereo unspecified) in this assay?
0.0

----------
System: 786-0 renal
runDescription: NCI-60 one-dose screen, 48 h
conditionContext: 10 µM unless noted
Compounds without any hit were thinned out: in the full panel of roughly 83,000, 20% have a hit. The source made the active and inactive calls. How the source made its calls: active means growth percent below 10; inactive means the rest.
Field 'call' accepts 1 (yes) = active, 0 (no) = inactive

chemicalString	group
C#C[C@]1(O)CC[C@H]2[C@@H]3CC=C4c5sc(C6CC6)nc5CC[C@]4(C)[C@H]3CC[C@@]21C	0 (no)

Test call for this molecule, please: `C=C(C)[C@@H]1CC[C@]2(C(=O)NCCCN(CCC#N)CCC#N)CC[C@]3(C)[C@H](CC[C@@H]4[C@@]5(C)CCC(=O)C(C)(C)[C@@H]5CC[C@]43C)[C@@H]12`
0 (no)

# outcome recorded in this test, key = `Cc1occc1-c1nc2s/c(=C\c3cn(-c4ccccc4)nc3-c3ccccc3)c(=O)n2n1`
0 (no)

Lab log entry: `CC[C@@](C)(NC(=O)C(C)(C)NC(=O)[C@@H](NC(=O)[C@@H]1CCCN1C(=O)C(C)(C)NC(=O)[C@H](CC(C)C)NC(=O)CNC(=O)C(C)(C)NC(=O)[C@@H](NC(=O)C(C)(C)NC(=O)[C@H](CCC(N)=O)NC(=O)[C@H](C)NC(=O)C(C)(C)NC(=O)[C@H](C)NC(=O)C(C)(C)NC(=O)[C@H](C)NC(=O)C(C)(C)NC(C)=O)C(C)C)C(C)C)C(=O)N[C@@H](CCC(N)=O)C(=O)N[C@@H](CCC(N)=O)C(=O)N[C@H](CO)CC1CCCCC1` — outcome as called in the assay?
1 (yes)

Field: outcome | Entry: `C/C(=C(/c1ccc(O)cc1)c1ccc(OCCN2CCCC2)cc1)c1ccc(Cl)cc1`
0 (no)

----------
Test system: SK-MEL-5 melanoma
runDescription: NCI-60 one-dose screen, 48 h
conditionContext: 10 µM unless noted
About 83,000 compounds went through this panel and 20% of them were active in at least one assay; those are over-represented in the sample as a whole. Active and inactive are the calls of the source. Rule for the calls: active = growth percent below 10; inactive = the rest.
I would appreciate it if you answered using one of these outcomes: 1 (active), -1 (inactive)

Study these solved cases before continuing.
compound	targetEntity	group
CC(=O)NC(C)(C)C(=O)N1CCC[C@H]1C(=O)NC(C)(C)C(=O)N[C@@H](C)C(=O)NC(C)(C)C(=O)N[C@@H](C)C(=O)N[C@@H](CCC(N)=O)C(=O)NC(C)(C)C(=O)N[C@H](C(=O)NC(C)(C)C(=O)NCC(=O)N[C@@H](CC(C)C)C(=O)NC(C)(C)C(=O)N1CCC[C@H]1C(=O)N[C@H](C(=O)NC(C)(C)C(=O)NC(C)(C)C(=O)N[C@@H](CCC(N)=O)C(=O)N[C@@H](CCC(N)=O)C(=O)N[C@H](CO)Cc1ccccc1)C(C)C)C(C)C	SK-MEL-5 melanoma	-1
NC(=O)N1N=C(c2cc3ccccc3oc2=O)CC1c1cn(-c2ccccc2)nc1-c1ccc(Cl)cc1 (configuration not stated)	SK-MEL-5 melanoma	-1
COc1ccc(NC(=O)[C@H](C)NC(=O)OC(C)(C)C)cc1C(=O)Nc1cccc(-c2cc(=O)c3c(OC)c(OC)c(OC)cc3o2)c1	SK-MEL-5 melanoma	1

Pending compound:
Recorded call for `CN(C)c1ncc(/C=C2\SC(=S)N(Cc3ccccc3Cl)C2=O)s1` ?
-1
